SYSTEM NAME: delta opioid receptor (Mus musculus)
Construct: NG108-15 cell membranes were purchased from Applied Cell Sciences (Rockville, Md.); host or cells: NG108-15 cell membranes
PROTOCOL TEXT: [35S]GTPγS binding assay in NG108-15 cell membranes (delta opioid functional assay), 200 nM screen
Assay type: biochemical
CONDITION INFO: GTPγS δ-opioid receptor EC50 (μM), NG108-15 cell membranes; averages if tested more than once
MEASURED PARAMETER: EC50 (µM)
One number for each entry, in µM.

{"COMPOUND": "COc1ccc(Oc2nc(-c3ccc4c(c3)OCO4)ncc2NC[C@@H]2CCCN2)cc1 [Cpd 93]", "EC50, µM": 0.072}
{"COMPOUND": "COc1ccc(Oc2nc(-c3cncc(OC)c3)ncc2NC[C@@H]2CCCN2)cc1 [Cpd 68]", "EC50, µM": 0.031}
{"COMPOUND": "COc1ccc(Oc2nc(-c3cccnc3)ncc2N2CCN[C@H](C)C2)cc1 [Cpd 357]", "EC50, µM": 0.005}
{"COMPOUND": "CCOc1ncc(-c2ncc(NC[C@@H]3CCCN3)c(Oc3ccc(OC)cc3)n2)cn1 [Cpd 60]", "EC50, µM": 0.089}
{"COMPOUND": "COc1ccc(Oc2nc(-c3cncc(SC)c3)ncc2N[C@H]2CCNC2)cc1 [Cpd 255]", "EC50, µM": 0.0464}

Quick request: EC50 for each listed item, please.
1. COc1ccc(Oc2nc(-c3cccnc3)ncc2N[C@H]2CCCNC2)cc1 [Cpd 236]
2. Cc1ccc(Oc2nc(-c3cncc(C#N)c3)ncc2NC[C@@H]2CCCN2)cc1F [Cpd 183]

1. 0.017
2. 0.091

Quick request: EC50 for each listed item, please.
1. COc1ccc(Oc2nc(-c3cncnc3)ncc2NC2CCCNC2)cc1 (stereo not shown) [Cpd 109]
2. COc1ccc(Oc2nc(-c3cncc(OC)c3)ncc2NC[C@@H]2C[C@@H](F)CN2)cc1 [Cpd 235]
3. COc1ccc(Oc2nc(-c3cncc(C#N)c3)ncc2NC[C@H]2C[C@H](N)C2)cc1 [Cpd 301]

1: 0.057; 2: 0.00733; 3: 0.087

Quick request: EC50 for each listed item, please.
1. COc1ccc(Oc2nc(-c3cncc(OC)c3)ncc2N2CCCNCC2)cc1 [Cpd 346]
2. CC(=O)Oc1cccc(Oc2nc(-c3cncc(C)c3)ncc2NC[C@@H]2CCCN2)c1 [Cpd 251]
3. COc1ccc(Oc2nc(-c3cncc(C#N)c3)ncc2NC[C@@H]2CCCN2)cc1 [Cpd 69]

1. 0.047
2. 0.015
3. 0.0085

* * *

SYSTEM NAME: mu opioid receptor (Rattus norvegicus, UniProt P33535)
Construct: the forebrains were homogenized in Tris buffer in a Teflon®-glass homogenizer; from tissue; host or cells: forebrain of male Wistar rats, particulate (membrane) preparation
Sequence (P33535 whole entry): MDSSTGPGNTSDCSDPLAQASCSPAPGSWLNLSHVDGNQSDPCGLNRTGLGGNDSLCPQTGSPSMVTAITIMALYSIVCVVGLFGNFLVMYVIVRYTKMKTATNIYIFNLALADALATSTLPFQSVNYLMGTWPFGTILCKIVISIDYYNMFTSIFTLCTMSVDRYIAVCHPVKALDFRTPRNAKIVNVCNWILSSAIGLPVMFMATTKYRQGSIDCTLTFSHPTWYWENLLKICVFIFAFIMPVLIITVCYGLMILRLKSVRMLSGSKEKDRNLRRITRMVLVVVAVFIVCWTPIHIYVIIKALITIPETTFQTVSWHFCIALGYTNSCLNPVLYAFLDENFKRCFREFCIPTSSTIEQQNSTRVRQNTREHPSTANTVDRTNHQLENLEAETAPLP
PROTOCOL TEXT: Rat brain mu opioid receptor binding assay
CONDITION INFO: rat forebrain, [3H]DAMGO ligand; read-out: μ-binding Ki
Please respond with true when measured Ki is strictly beneath 1 µM, and with false in all other cases.

Worked set:
{"COMPOUND": "COc1ccc(Oc2nc(-c3noc(=O)[nH]3)ncc2NC[C@@H]2CCCN2)cc1 [Cpd 35]", "ANSWER LABEL": "true"}
{"COMPOUND": "COc1ccc(Oc2nc(-c3cccc(OC)c3)ncc2NC[C@@H]2CCCN2)cc1 [Cpd 3]", "ANSWER LABEL": "false"}

Is Ki strictly under 1 µM for the entry COc1ccc(Oc2nc(-c3cccc(C(N)=O)c3)ncc2NC[C@@H]2CCCN2)cc1 [Cpd 30] ? false

Is Ki strictly under 1 µM for the entry COc1ccc(Oc2nc(-c3cnc4[nH]ccc4c3)ncc2NC[C@@H]2CCCN2)cc1 [Cpd 77] ? true

Is Ki strictly under 1 µM for the entry COc1ccc(Oc2nc(-c3ccc(OC)cc3)ncc2NC[C@@H]2CCCN2)cc1 [Cpd 1] ? false

Is Ki strictly under 1 µM for the entry COc1ccc(Oc2nc(-c3cccc4cccnc34)ncc2NC[C@@H]2CCCN2)cc1 [Cpd 17] ? false

Is Ki strictly under 1 µM for the entry COc1ccc(Oc2nc(-c3ccncc3)ncc2NC[C@@H]2CCCN2)cc1 [Cpd 7] ? false

Is Ki strictly under 1 µM for the entry COc1ccc(Oc2nc(-c3cccc(F)c3)ncc2NC[C@@H]2CCCN2)cc1 [Cpd 38] ? false

Is Ki strictly under 1 µM for the entry COc1ccc(Oc2nc(-c3ccc4nccnc4c3)ncc2NC[C@@H]2CCCN2)cc1 [Cpd 76] ? true

Is Ki strictly under 1 µM for the entry FC(F)(F)Oc1ccc(Oc2nc(-c3cccnc3)ncc2NC[C@@H]2CCCN2)cc1 [Cpd 11] ? false

Is Ki strictly under 1 µM for the entry COc1ccc(Oc2nc(-c3ccc(OC)nc3)ncc2NC[C@@H]2CCCN2)cc1 [Cpd 22] ? false

Is Ki strictly under 1 µM for the entry COc1ccc(Oc2nc(-c3cc(F)cc(F)c3)ncc2NC[C@@H]2CCCN2)cc1 [Cpd 55] ? false

Is Ki strictly under 1 µM for the entry COc1ccc(Oc2nc(-c3cccc(C#N)c3)ncc2NC[C@@H]2CCCN2)cc1 [Cpd 28] ? true

Is Ki strictly under 1 µM for the entry COc1ccc(-c2ncc(NC[C@@H]3CCCN3)c(Oc3ccc(F)cc3)n2)cn1 [Cpd 37] ? false

Is Ki strictly under 1 µM for the entry COc1ccc(Oc2nc(-c3ccc4nonc4c3)ncc2NC[C@@H]2CCCN2)cc1 [Cpd 78] ? false

Is Ki strictly under 1 µM for the entry COc1ccc(Oc2nc(-c3ccc(N)nc3)ncc2NC[C@@H]2CCCN2)cc1 [Cpd 72] ? true

Is Ki strictly under 1 µM for the entry COc1ccc(Oc2nc(-c3cnc(SC)nc3)ncc2NC[C@@H]2CCCN2)cc1 [Cpd 52] ? true

Is Ki strictly under 1 µM for the entry COc1ccc(Oc2nc(-c3ccc(O)nc3)ncc2NC[C@@H]2CCCN2)cc1 [Cpd 74] ? false

* * *

SYSTEM NAME: delta opioid receptor (Mus musculus, UniProt P32300)
Construct: NG108-15 cell membranes were purchased from Applied Cell Sciences (Rockville, Md.); host or cells: NG108-15 cell membranes
Sequence (P32300 whole entry): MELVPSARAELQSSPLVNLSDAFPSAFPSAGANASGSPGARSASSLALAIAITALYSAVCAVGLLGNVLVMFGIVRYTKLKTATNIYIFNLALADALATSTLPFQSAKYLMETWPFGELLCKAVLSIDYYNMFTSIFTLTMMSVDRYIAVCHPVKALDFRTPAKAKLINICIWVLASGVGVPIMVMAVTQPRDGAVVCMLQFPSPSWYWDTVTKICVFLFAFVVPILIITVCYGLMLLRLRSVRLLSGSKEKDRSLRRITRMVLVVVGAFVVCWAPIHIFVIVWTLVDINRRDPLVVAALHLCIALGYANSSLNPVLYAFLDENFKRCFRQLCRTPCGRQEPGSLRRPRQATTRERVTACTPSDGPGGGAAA
PROTOCOL TEXT: [35S]GTPγS binding assay in NG108-15 cell membranes (delta opioid functional assay), 200 nM screen
Format: biochemical
CONDITION INFO: NG108-15 cell membranes; averages if tested more than once; read-out: GTPγS δ-opioid receptor EC50
pEC50: −log10 of the molar value.
condition met means recorded pEC50 is 7 or above; condition not met means it is below 7.

Worked set:
{"GIVEN SMILES": "CCc1ccc(Oc2nc(-c3cccnc3)ncc2NC[C@@H]2CCCN2)cc1", "ANSWER LABEL": "condition not met"}
{"GIVEN SMILES": "COc1ccc(Oc2nc(-c3cncnc3)ncc2NC[C@@H]2CCCN2)cc1F", "ANSWER LABEL": "condition met"}
{"GIVEN SMILES": "COc1ccc(Oc2nc(-c3cncc(C#N)c3)ncc2NC[C@H](C)N)cc1", "ANSWER LABEL": "condition not met"}

Now let's try a different one.
Decide: is the reported value of pEC50 for N#Cc1cncc(-c2ncc(NC[C@@H]3CCCN3)c(Oc3ccc(Cl)cc3)n2)c1 equal to or greater than 7? condition met

* * *

SYSTEM NAME: delta opioid receptor (Mus musculus)
Construct: NG108-15 cell membranes were purchased from Applied Cell Sciences (Rockville, Md.); host or cells: NG108-15 cell membranes
PROTOCOL TEXT: [35S]GTPγS binding assay in NG108-15 cell membranes (delta opioid functional assay), 200 nM screen
Type: biochemical
CONDITION INFO: 200 nM test compound; relative to calculated max of SNC80 dose response curve; NG108-15 cell membranes; averages if tested more than once
Recorded GTPγS δ-RelEfficacy @200 nM determines the label; the label ranges are Low: < 0.2; Medium: ≥ 0.2 and < 0.8; High: ≥ 0.8

Worked set:
{"MOLECULE": "COc1ccc(Oc2nc(-c3cncnc3)ncc2NCC2COCCN2)cc1 (racemic)", "ANSWER LABEL": "Medium"}
{"MOLECULE": "CC(C)Oc1ccc(Oc2nc(-c3cncnc3)ncc2NC[C@@H]2CCCN2)cc1", "ANSWER LABEL": "Low"}
{"MOLECULE": "CC(C)Oc1ccc(Oc2nc(-c3cccnc3)ncc2NC[C@@H]2CCCN2)cc1", "ANSWER LABEL": "Low"}
{"MOLECULE": "COc1ccc(Oc2nc(-c3cncc(SC)c3)ncc2NC[C@@H]2CCCN2)cc1", "ANSWER LABEL": "High"}
{"MOLECULE": "CCc1ccc(Oc2nc(-c3cncc(Cl)c3)ncc2NC[C@@H]2CCCN2)cc1", "ANSWER LABEL": "Medium"}
{"MOLECULE": "CCc1ccc(Oc2nc(-c3cncc(C#N)c3)ncc2NC[C@@H]2C[C@@H](F)CN2)cc1", "ANSWER LABEL": "Medium"}

Sort into band: CC(=O)Oc1cccc(Oc2nc(-c3cncc(C)c3)ncc2NC[C@@H]2CCCN2)c1 High

Sort into band: COc1ccc(Oc2nc(-c3cncc(SC)c3)ncc2NC[C@@H]2C[C@@H](F)CN2)cc1 High
